Items are presented alongside their recorded TGI.
system: MOLT-4 leukemia; experiment: NCI tumour cell line growth inhibition, 48 h
readout-label: TGI (µM)

compound	unit-abbreviation	relation-symbol	experimental-value
Cc1ccc(N2C(=O)C(Cl)=C(Cl)C2=O)cc1	µM	=	46.5
Oc1c(I)cc(I)cc1CN(Cc1ccccn1)Cc1ccccn1	µM	=	10.7
CSC1(CC(=O)N2CCCCC2)C(=O)Nc2ccccc21 (centres undefined)	µM	>	100
C=C(CN(C)C)C(=O)c1ccc(Oc2ccccc2)cc1	µM	=	2.05
COc1cccc(Nc2nc(N)nc(N)c2N=O)c1	µM	=	41.8
CN1N=C2c3ccccc3CC[C@H]2C1c1cccc(O)c1 (some centres undefined)	µM	>	100
CC(C)NC(=O)OCc1c(COC(=O)NC(C)C)c(-c2ccc[n+](COC(=O)C(C)(C)C)c2)n2c1CCC2	µM	>	100
C=C(C)[C@@H]1CC[C@]2(C(N)=O)CC[C@]3(C)[C@H](CC[C@@H]4[C@@]5(C)C/C(=C/c6cccnc6)[C@H](O)C(C)(C)[C@@H]5CC[C@]43C)[C@@H]12	µM	>	100
COC(=O)[C@H](COC(=O)/C=C/c1ccc(OC(C)=O)c(OC(C)=O)c1)NC(=O)/C=C/c1ccc(OC(C)=O)c(OC(C)=O)c1	µM	>	100

* * *

system: RPMI-8226 leukemia; assay: NCI tumour cell line growth inhibition, 48 h; in the data active means GI50 below about 0.43 µM; inactive means the rest
Outcomes: active, inactive

compound	tested-system	group
Clc1ccc2c(NCCNc3nc(N4CCCC4)nc4ccccc34)ccnc2c1	RPMI-8226 leukemia	inactive
CC#CC(=O)N1CC[C@@H](n2c(=O)n(-c3ccc(Oc4ccccc4)cc3)c3c(N)ncnc32)C1	RPMI-8226 leukemia	inactive
CN1CCN(CC(=O)N2c3cccc4cccc(c34)N(C(=O)CN3CCN(C)CC3)C2c2cn(-c3ccccc3)nc2-c2cccc([N+](=O)[O-])c2)CC1	RPMI-8226 leukemia	inactive
O=S(=O)(Nc1ccccn1)c1ccc(N=Nc2ccc(O)c3ncccc23)cc1	RPMI-8226 leukemia	inactive
Cc1cc2nc(C(Cl)Cl)nc(-c3ccccc3)n2n1	RPMI-8226 leukemia	inactive
COc1cc2c3c(n(CCCN4CCCC(O)C4)c(=O)c2cc1OC)-c1cc2c(cc1C3=O)OCO2 (stereo not drawn)	RPMI-8226 leukemia	active
C=C(C)[C@@H]1CC[C@]2(C(N)=O)CC[C@]3(C)[C@H](CC[C@@H]4[C@@]5(C)C/C(=C/c6cccnc6)[C@H](O)C(C)(C)[C@@H]5CC[C@]43C)[C@@H]12	RPMI-8226 leukemia	inactive
COC(C)(C)[C@H](O)C(O)CC(C)[C@@H]1CCC23CC12CCC1[C@@]2(C)CCC(OC(C)=O)C(C)(C)C2CC(OC2OC(COC(C)=O)C(O)C(O)C2O)[C@]13C (stereo partly drawn)	RPMI-8226 leukemia	inactive

* * *

Items are presented alongside their recorded GI50.
system: SK-OV-3 ovarian; assay: NCI tumour cell line growth inhibition, 48 h

compound	tested-system	GI50
Nc1nc(-c2ccc(Cl)cc2)cc(-c2ccccc2)c1-c1nc2ccccc2o1	SK-OV-3 ovarian	15.4 µM
Nc1c2ccccc2nc2ccccc12 (tested in a mixture with another compound)	SK-OV-3 ovarian	2.39 µM
Cc1c(-c2nnc(-c3cc(Cl)c(Cl)cc3Cl)o2)nnn1-c1ccnc2c(C(F)(F)F)cccc12	SK-OV-3 ovarian	24.5 µM
COc1ccc2nc(-c3cc4c([nH]c5ccccc54)c(-c4ccc(F)c(F)c4)n3)[nH]c2c1	SK-OV-3 ovarian	17.1 µM

* * *

tested on: OVCAR-8 ovarian; assay: NCI tumour cell line growth inhibition, 48 h

compound	TGI
Cc1cc2nc(C(Cl)Cl)nc(-c3ccccc3)n2n1	> 100 µM
COC(=O)Cc1cc(=O)n2c([nH]c3ccccc32)c1C#N	> 100 µM
c1ccc2c(c1)[nH]c1c2ncc2[nH]c3ccccc3c21	17.2 µM
CC[C@H]1C=CCC[C@@]2(C[C@@H]3CC[C@H]4[C@H](C(=O)OCCCCCCCCCCCCCCCC(=O)N(CCCN)C[C@@H](O)CCN)[C@]5(CCC[C@@H](C)O5)NC(=[N+]34)N2)O1	2.92 µM
CC(C)C1COC(c2ccc3ccccc3c2-c2c(O[Si](C)(C)C(C)(C)C)ccc3ccccc23)=N1 (stereo not drawn)	35.3 µM
COc1ccc(C2CC(=O)c3c(O)c(OC)c(OC)c(OC)c3O2)cc1O (stereo not drawn)	> 57.1 µM
Clc1ccc(-c2nnc(-c3c(Cl)c(Cl)c(Cl)c(Cl)c3-c3nc4ccccc4[nH]3)o2)cc1	> 100 µM
C=CCSSc1ncnc2c1ncn2C1OC(CO)C(O)C1O (stereo not drawn)	> 42.9 µM

* * *

tested on: MCF7 breast; experiment: NCI tumour cell line growth inhibition, 48 h
readout-label: TGI

compound	readout-label	experimental-value
CCOC(=O)N1C=CC(=C2C(=C3C=CN(C(=O)OCC)C=C3)C(=C3C=CN(C(=O)OCC)C=C3)C2=C2C=CN(C(=O)OCC)C=C2)C=C1	TGI	> 100 µM
CSC1(CC(=O)N2CCCCC2)C(=O)Nc2ccccc21 (centres undefined)	TGI	> 100 µM
CC#CC(=O)N1CC[C@@H](n2c(=O)n(-c3ccc(Oc4ccccc4)cc3)c3c(N)ncnc32)C1	TGI	> 100 µM
Clc1ccc2c(NCCNc3nc(N4CCCC4)nc4ccccc34)ccnc2c1	TGI	3.86 µM

* * *

system: HS 578T breast; assay: NCI tumour cell line growth inhibition, 48 h

compound	tested-system	GI50
CN1CCN(CC(=O)N2c3cccc4cccc(c34)N(C(=O)CN3CCN(C)CC3)C2c2cn(-c3ccccc3)nc2-c2cccc([N+](=O)[O-])c2)CC1	HS 578T breast	1.95 µM
COc1ccc2c(c1)C(=O)c1c-2c(NCCN(C)C)nc2ccccc12	HS 578T breast	9.28 µM
CC#CC(=O)N1CC[C@@H](n2c(=O)n(-c3ccc(Oc4ccccc4)cc3)c3c(N)ncnc32)C1	HS 578T breast	22.5 µM
Cc1cc2nc(C(Cl)Cl)nc(-c3ccccc3)n2n1	HS 578T breast	2.65 µM
O=[N+]([O-])c1cc2c(c([N+](=O)[O-])c1)Nc1ccccc1O2	HS 578T breast	7.22 µM
Cc1c(-c2nnc(-c3cc(Cl)c(Cl)cc3Cl)o2)nnn1-c1ccnc2c(C(F)(F)F)cccc12	HS 578T breast	25.6 µM
CC(=O)[O][Bi]([c]1ccccc1)[c]1ccccc1	HS 578T breast	24.9 µM
C[C@@H]1OCC2(CCN(c3cnc(Sc4ccnc(N)c4Cl)c(N)n3)CC2)[C@@H]1N	HS 578T breast	61.8 µM
COc1cc2c3c(n(CCCN4CCCC(O)C4)c(=O)c2cc1OC)-c1cc2c(cc1C3=O)OCO2 (centres undefined)	HS 578T breast	0.874 µM

* * *

tested on: SNB-75 CNS; assay: NCI tumour cell line growth inhibition, 48 h
readout-label: TGI (µM)

compound	readout-label	relation-symbol	experimental-value
Cc1c(-c2nnc(-c3cc(Cl)c(Cl)cc3Cl)o2)nnn1-c1ccnc2c(C(F)(F)F)cccc12	TGI	=	43.5
CCN1CCN(c2ccc(Nc3ncc4ccc5ncn(C(C)C)c5c4n3)nc2)CC1	TGI	=	0.415
Cc1ccc(C2=NN(c3ccc(S(N)(=O)=O)cc3)C(c3cn(-c4ccccc4)nc3-c3ccccc3)C2)cc1 (stereo not given)	TGI	>	100
Cc1ccc(SSCCCCCS(=O)O)cc1	TGI	=	63.1
O=C(Nc1ccc(Cl)cc1)NS(=O)(=O)c1c(-c2ccccc2)oc2ccccc2c1=O	TGI	>	100
CN(C)c1nc(=NCc2cccnc2)ss1	TGI	>	10
C=CCSSc1ncnc2c1ncn2C1OC(CO)C(O)C1O (stereo not given)	TGI	=	96.9
Clc1ccc(-c2nnc(-c3c(Cl)c(Cl)c(Cl)c(Cl)c3-c3nc4ccccc4[nH]3)o2)cc1	TGI	>	100
Cc1ccc2c(c1)C=CC(C#N)N2C(=O)Oc1ccccc1 (stereo not given)	TGI	>	100
O=C(O)c1ccc(NNC(=O)c2cccc3c(=O)c4ccccc4[nH]c23)cc1	TGI	>	100

* * *

system: OVCAR-4 ovarian; experiment: NCI tumour cell line growth inhibition, 48 h

molecule	tested-system	relation-symbol	TGI [µM]
O=C(N/N=C(\c1nc2ccc(Cl)cc2[nH]c1=O)C(O)c1ccccc1Cl)c1ccncc1 (stereo not drawn)	OVCAR-4 ovarian	>	100
COc1ccc(C2C(C=O)C(N3CCN(C)CC3)=Nc3nc4ccccc4n32)cc1 (stereo not drawn)	OVCAR-4 ovarian	=	48.2
Cc1cn(C2CC(NC(=NCC3OC(n4cnc5c(N)ncnc54)CC3O)NC#N)C(CO)O2)c(=O)[nH]c1=O (stereo not drawn)	OVCAR-4 ovarian	>	100
C=C1C(=O)O[C@H]2[C@H]1CC/C(COC(=O)NCc1cc(OC)cc(OC)c1)=C\CC[C@@]1(C)O[C@@H]21	OVCAR-4 ovarian	=	5.24
N#CC1(C#N)C(c2ccccc2)C=CC(c2ccc([N+](=O)[O-])cc2)C1(C#N)C#N (stereo not drawn)	OVCAR-4 ovarian	=	30.5
CCOC(=O)c1cc(OC(=O)CC)c2c(OC)ccc(OC)c2c1	OVCAR-4 ovarian	>	100
C[C@]12CCC(=O)C=C1CC[C@@H]1[C@@H]2[C@@H](O)C[C@@]2(C)[C@H]1CC[C@]2(O)C(=O)COC(=O)C1CCCC1	OVCAR-4 ovarian	>	100
CC[CH2][Sn]([CH2]CC)([O]C(=O)Cc1ccc(F)cc1)[O][Sn]([CH2]CC)([CH2]CC)[O]C(=O)Cc1ccc(F)cc1	OVCAR-4 ovarian	=	1.23
